Read-out: Tumor necrosis factor receptor 1 (TNFRSF1A), TNFRSF1A (gene 7132)
Assay: LTEA_HepaRG_TNFRSF1A: Life Technologies and Expression Analysis (LTEA) Assay for Tumor necrosis factor receptor 1 (TNFRSF1A) using HepaRG (AID 2283535)
Details: mRNA level, 48 h; actives raise or lower the signal
Active and inactive are the calls of the source. The calls were made as follows: active = hit-call score of the fitted dose curve at least 0.9, where 1 is the maximum; inactive = score below 0.9.
Thanks in advance; please answer with one of these: label 1 for active, label 0 for inactive

Example cases with answers are listed next.
1. CC1COC(Cn2cncn2)(c2ccc(Oc3ccc(Cl)cc3)cc2Cl)O1 (stereo not drawn) | label 1
2. C#CCOS(=O)OC1CCCCC1Oc1ccc(C(C)(C)C)cc1 (stereo not drawn) | label 1
3. CNC(=O)ON=CC(C)(C)SC | label 0

Any idea what this test logged for CCCCC(CC)COC(=O)c1ccccc1C(=O)OCC(CC)CCCC (stereo not drawn) ?
label 0

Any idea what this test logged for COC(=O)C=C(C)OP(=O)(OC)OC ?
label 0

* * *

Assay: CCTE_Shafer_MEA_acute_synchrony_index: CCTE's Neural Acute Assay for Synchrony, Shafer Lab (AID 2284027);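 also: network synchrony index of spontaneous spiking in primary rat cortical neurons on MEAs; fitted for loss of signal so actives lower synchrony relative to DMSO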
The source made the active and inactive calls. How the source made its calls: active means hit-call score of the fitted dose curve at least 0.9, where 1 is the maximum; inactive means score below 0.9.
Thanks in advance; please answer with one of these: active, inactive

Example cases with answers are listed next.
1. COc1ccc(C(c2ccc(OC)cc2)C(Cl)(Cl)Cl)cc1 | active
2. CC(C)Oc1cc(-n2nc(C(C)(C)C)oc2=O)c(Cl)cc1Cl | inactive
3. OC(c1ccc(Cl)cc1)(c1cncnc1)c1ccccc1Cl (configuration not stated) | active
4. C=CCC1=C(C)[C@@H](OC(=O)[C@@H]2[C@@H](C=C(C)C)C2(C)C)CC1=O | active
5. CO/C=C(/C(=O)OC)c1ccccc1Oc1cc(Oc2ccccc2C#N)ncn1 | active
6. CCCC1COC(Cn2cncn2)(c2ccc(Cl)cc2Cl)O1 (configuration not stated) | active
7. CCNc1nc(Cl)nc(NC(C)C)n1 | active
8. CON(C)C(=O)Nc1ccc(Cl)c(Cl)c1 | active

Any idea what this test logged for CCOP(=S)(OCC)SCn1c(=O)oc2cc(Cl)ccc21 ?
active

Any idea what this test logged for O=C(O)c1nc(Cl)ccc1Cl ?
inactive

Any idea what this test logged for N#CC(CCc1ccc(Cl)cc1)(Cn1cncn1)c1ccccc1 (configuration not stated) ?
inactive

Any idea what this test logged for COC(=O)N(OC)c1ccccc1COc1ccn(-c2ccc(Cl)cc2)n1 ?
active

Any idea what this test logged for COP(=S)(OC)Oc1nc(Cl)c(Cl)cc1Cl ?
inactive

Any idea what this test logged for CCCCNC(=O)OCC#CI ?
active

Any idea what this test logged for CC(Oc1ccc(Cl)cc1Cl)C(=O)O (configuration not stated) ?
inactive

Any idea what this test logged for C#CCOS(=O)OC1CCCCC1Oc1ccc(C(C)(C)C)cc1 (configuration not stated) ?
active

Any idea what this test logged for CC1COC(Cn2cncn2)(c2ccc(Oc3ccc(Cl)cc3)cc2Cl)O1 (configuration not stated) ?
active

* * *

Target: Transcription factor Sp1 (Homo sapiens)
Assay: ATG_Sp1_CIS: Attagene CIS-FACTORIAL HepG2 Assay for human Specificity Protein 1 (Sp1) (AID 2282961)
Conditions: HepG2 Sp1 cis-reporter transcription, actives raise or lower the signal
Description: ATG_CIS is a cell-based, multiplexed-readout assay that uses HepG2, a human liver cell line, with measurements taken at 24 hours after chemical dosing in a 24-well plate.ATG_Sp1_CIS is one of 52 assay component(s) measured or calculated from the ATG_CIS assay. […] This assay endpoint, ATG_Sp1_CIS, was analyzed with bidirectional fitting relative to DMSO as the negative control and baseline of activity. […]
Activity calls are given as the source filed them. Rule for the calls: active = hit-call score of the fitted dose curve at least 0.9, where 1 is the maximum; inactive = score below 0.9.
Thanks in advance; please answer with one of these: 1 (yes) (active), 0 (no) (inactive)

Example cases with answers are listed next.
1) CN(C)C(=S)SSC(=S)N(C)C | 0 (no)
2) CCCCC(CC)COC(=O)c1ccccc1C(=O)OCC(CC)CCCC (stereo not given) | 0 (no)
3) N#Cc1nn(-c2c(Cl)cc(C(F)(F)F)cc2Cl)c(N)c1S(=O)C(F)(F)F (stereo not given) | 0 (no)
4) C=CC1(C)OC(=O)N(c2cc(Cl)cc(Cl)c2)C1=O (stereo not given) | 0 (no)
5) COC(=O)C=C(C)OP(=O)(OC)OC | 0 (no)

Any idea what this test logged for CO/C=C(/C(=O)OC)c1ccccc1Oc1cc(Oc2ccccc2C#N)ncn1 ?
0 (no)

Any idea what this test logged for CCCC1COC(Cn2cncn2)(c2ccc(Cl)cc2Cl)O1 (stereo not given) ?
0 (no)

Any idea what this test logged for CC(C)Oc1cc(-n2nc(C(C)(C)C)oc2=O)c(Cl)cc1Cl ?
0 (no)

Any idea what this test logged for CCCCNC(=O)n1c(NC(=O)OC)nc2ccccc21 ?
0 (no)

Any idea what this test logged for CCCN(CCC)c1c([N+](=O)[O-])cc(S(N)(=O)=O)cc1[N+](=O)[O-] ?
0 (no)
